Data provenance is PubChem BioAssay (EPA / NIEHS).

experiment: CCTE_Mundy_HCI_iCellGluta_NOG_NeuriteLength: CCTE's Neurite Outgrowth Assay in iCellGluta cells for Neurite Length, Mundy Lab (AID 2284318)
Inconclusive results are not listed. Activity calls are given as the source filed them. Rule for the calls: active = hit-call score of the fitted dose curve at least 0.9, where 1 is the maximum; inconclusive = response in the unintended direction; inactive = score below 0.9.
readout type: AC50

Would you please look over these solved cases?
CO/N=C(/C(=O)OC)c1ccccc1COc1ccccc1C = 19.7 µM (active)
CCOc1ccc(C(C)(C)COCc2cccc(Oc3ccccc3)c2)cc1 = inactive
CCOP(=S)(OCC)SCSCC = inactive
O=C(O)C(F)(OC(F)(F)C(F)(F)C(F)(F)F)C(F)(F)F (stereo not given) = inactive

Moving on to the next compound.
// query Which value of AC50 has been reported for `O=C(O)C(F)(F)OC(F)(F)C(F)(F)OC(F)(F)F` in the records?
// result inactive

###

Examples of compounds with documented AC50 follow.
test system: rat Monoamine Oxidase, MAO-A, Central (MAOAC), gene 29253; assay: NVS_ENZ_rMAOAC: NovaScreen (NVS) Enzymatic Assay for rat Monoamine Oxidase, MAO-A, Central (MAOAC) (AID 2283243);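 note: potency refers to inhibition seen as signal drop below DMSO baseline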
Calls of active or inactive are those of the source. The calls were made as follows: active = hit-call score of the fitted dose curve at least 0.9, where 1 is the maximum; inconclusive = response in the unintended direction; inactive = score below 0.9.

Cc1ccc2c(c1N)C(=O)c1ccccc1C2=O = 25 µM (active)

// query Give the measured AC50 of `Nc1ccc2ccccc2c1` .
// result 19.4 µM (active)

// query What value of AC50 has been reported for the following compound? `Nc1ccc([N+](=O)[O-])cc1Cl`
// result 15.1 µM (active)

// query Need AC50, item `CCOP(=S)(OCC)SCS(=O)(=O)CC`
// result 7.29 µM (active)

// query I'd like to know its AC50. The compound in question is `c1ccc2c(c1)Nc1ccccc1S2`
// result 9.71 µM (active)

###

system: guinea pig Dopamine Transporter (DAT), gene 100714898; experiment: NVS_TR_gDAT: NovaScreen (NVS) Transporter Assay for guinea pig Dopamine Transporter (DAT) (AID 2283369);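 note: active compounds lower bound radioligand signal relative to DMSO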
Inconclusive results are not listed. Calls of active or inactive are those of the source. How the source made its calls: active means hit-call score of the fitted dose curve at least 0.9, where 1 is the maximum; inconclusive means response in the unintended direction; inactive means score below 0.9.
Hello, when you answer, please use one of the following outcomes: active, inactive

CC(C)Nc1ccc(Nc2ccccc2)cc1 = active

// query What outcome does the record of this test show for `CC(C)(C)c1ccc(O)cc1` ?
// result inactive

// query Look up the recorded call for `CCC(C)(C)c1ccc(O)cc1` in this test.
// result active

// query Assay result, entry `O=P(Oc1ccccc1)(Oc1ccccc1)Oc1ccccc1` — outcome?
// result active

###

read-out: E-selectin (Homo sapiens); assay: BSK_3C_Eselectin: BioMAP Diversity Plus: 3C Assay for Eselectin Biomarker Activity (AID 2283015); conditions: primary human endothelial cells (HUVEC); actives raise or lower the signal
Activity calls are given as the source filed them. The calls were made as follows: active = hit-call score of the fitted dose curve at least 0.9, where 1 is the maximum; inactive = score below 0.9.
Classes to choose from: t for active, f for inactive

Record excerpt, results attached:
CCOS(=O)(=O)OCC = f
Cc1ccc(N)cc1N = f
CCCCOCCOP(=O)(OCCOCCCC)OCCOCCCC = f
CCOP(=S)(OCC)SCS(=O)(=O)CC = f
Cc1ccc2c(c1N)C(=O)c1ccccc1C2=O = f

// query Dear all, I need the recorded test outcome for `Nc1ccc(Cl)cc1` , thank you.
// result f

// query Check the results log: what was the call for O=C(O)C(F)(OC(F)(F)C(F)(F)C(F)(F)F)C(F)(F)F (stereo not drawn) ?
// result f

// query Name the outcome recorded for O=P(OCC(Br)CBr)(OCC(Br)CBr)OCC(Br)CBr (stereo not drawn) in the assay.
// result t

// query Outcome? `CSC(C)(C)C=NO`
// result f

// query Please state the recorded outcome for this molecule: `CCOP(=S)(OCC)SCSCC`
// result f

// query I'd appreciate the recorded outcome for COC(=O)C(F)(F)C(F)(F)OC(F)(C(F)(F)F)C(F)(F)OC(F)=C(F)F (stereo not drawn) from this test.
// result f

// query Which outcome did this test record for the molecule `CCC(C)(C)c1ccc(O)cc1` ?
// result f

// query Please state the recorded outcome for this molecule: CC(Cl)CN(C)C (stereo not drawn)
// result f
